Assay: Tmax in Sprague-Dawley rat at 75 mg/kg, po by HPLC-UV analysis
Format: ADME, organism-based
Settings: in vivo
readout.label: Tmax (h)

[[record]]
structure_smiles = "CC(C)(C)CNc1ncc(Br)c(Nc2ccccc2C(N)=O)n1"
readout_label = "Tmax"
unit_label = "h"
readout_number = 1.38


----------
Assay: AUC (0 to infinity) in Sprague-Dawley rat at 75 mg/kg, po by HPLC-UV analysis
Type: ADME, organism-based
Design: dose 75 mg/kg, route po
Conditions: in vivo
readout.label: AUC(0-inf) (ng·h/mL)

[[record]]
structure_smiles = "CC(C)(C)CNc1ncc(Br)c(Nc2ccccc2C(N)=O)n1"
readout_label = "AUC(0-inf)"
readout_number = 1700

